Listed next: entries and their corresponding SI (Selectivity Index).
- System: Renal cancer cell lines
- test-details: NCI-60 SRB growth inhibition, subpanel
- Assay type: cell-based, human
- condition-context: full panel MG-MID / Renal Cancer subpanel MG-MID
measured-metric: SI (Selectivity Index)

                                   molecule      experimental_target  measured
0  COc1ccc(CNc2cccc(C(=O)/C=C/c3ccc(NC(C)=O)cc3)c2)cc1OC [Compound 5h]  Renal cancer cell lines      1.12
1  O=C(/C=C/c1cccnc1)c1cccc(NCc2ccc(CO)cc2)c1 [Compound 5e]  Renal cancer cell lines      0.77
2  CC(=O)Nc1ccc(CNc2cccc(C(=O)/C=C/c3cccnc3)c2)cc1 [Compound 5b]  Renal cancer cell lines      0.89
3  O=C(/C=C/c1cccnc1)c1cccc(NCc2csc3ccccc23)c1 [Compound 5d]  Renal cancer cell lines      0.73

---

As shown below, each of these compounds has a reported GI50 value.
- Tested on: A498
- test-details: NCI-60 SRB growth inhibition, one-dose and five-dose
- Format: cell-based
- condition-context: Homo sapiens, A498
measured-metric: GI50 (µM)

>>> print(df.to_string())
                                   compound  units_label  measured
0  COc1ccc(CNc2cccc(C(=O)/C=C/c3ccc(NC(C)=O)cc3)c2)cc1OC [Compound 5h]           µM      13.7
1  CC(=O)Nc1ccc(/C=C/C(=O)c2cccc(NCc3csc4ccccc34)c2)cc1 [Compound 5i]           µM      17.4
2  CC(=O)Nc1ccc(CNc2cccc(C(=O)/C=C/c3cccnc3)c2)cc1 [Compound 5b]           µM      13.4
3  O=C(/C=C/c1cccnc1)c1cccc(NCc2csc3ccccc23)c1 [Compound 5d]           µM      12.1
4  CC(=O)Nc1ccc(/C=C/C(=O)c2cccc(NCc3ccc(CO)cc3)c2)cc1 [Compound 5j]           µM        15
5  CC(=O)Nc1ccc(/C=C/C(=O)c2cccc(NCc3ccc(C)cc3)c2)cc1 [Compound 5f]           µM      17.9
6  O=C(/C=C/c1cccnc1)c1cccc(NCc2ccc(CO)cc2)c1 [Compound 5e]           µM      14.8
7  Cc1ccc(CNc2cccc(C(=O)/C=C/c3cccnc3)c2)cc1 [Compound 5a]           µM      14.4
8  CC(=O)Nc1ccc(/C=C/C(=O)c2cccc(NCc3ccc(NC(C)=O)cc3)c2)cc1 [Compound 5g]           µM      14.2
9  COc1ccc(CNc2cccc(C(=O)/C=C/c3cccnc3)c2)cc1OC [Compound 5c]           µM      13.6

---

- Test system: SNB-19
- test-details: NCI-60 SRB growth inhibition, one-dose and five-dose
- Format: cell-based
- condition-context: Homo sapiens, SNB-19, read-out: percent growth inhibition
The label depends only on inhibition at 10 µM: class 1 if it is at least 70%, class 0 if it is smaller.

                                         mol  label_class
 0  CC(=O)Nc1ccc(CNc2cccc(C(=O)/C=C/c3cccnc3)c2)cc1      class 1
 1  CC(=O)Nc1ccc(/C=C/C(=O)c2cccc(NCc3ccc(NC(C)=O)cc3)c2)cc1      class 1
 2  COc1ccc(CNc2cccc(C(=O)/C=C/c3ccc(NC(C)=O)cc3)c2)cc1OC      class 0
 3  O=C(/C=C/c1c[nH]cn1)c1cccc(NCc2ccc(CO)cc2)c1      class 0
 4  O=C(/C=C/c1c[nH]cn1)c1cccc(NCc2ccc3oc(=O)ccc3c2)c1      class 0
 5  CC(=O)Nc1ccc(CNc2cccc(C(=O)/C=C/c3c[nH]cn3)c2)cc1      class 0
 6  COc1ccc(CNc2cccc(C(=O)/C=C/c3cccnc3)c2)cc1OC      class 0
 7  O=C(/C=C/c1cccnc1)c1cccc(NCc2csc3ccccc23)c1      class 1
 8  CC(=O)Nc1ccc(/C=C/C(=O)c2cccc(NCc3ccc(CO)cc3)c2)cc1      class 1
 9  O=C(/C=C/c1cccnc1)c1cccc(NCc2ccc(CO)cc2)c1      class 1
10  CC(=O)Nc1ccc(/C=C/C(=O)c2cccc(NCc3csc4ccccc34)c2)cc1      class 1
11  CC(=O)Nc1ccc(/C=C/C(=O)c2cccc(NCc3ccc4oc(=O)ccc4c3)c2)cc1      class 0
12  CC(=O)Nc1ccc(/C=C/C(=O)c2cccc(NCc3ccc(C)cc3)c2)cc1      class 0
13  Cc1ccc(CNc2cccc(C(=O)/C=C/c3cccnc3)c2)cc1      class 0
